Numbers sourced from patent US7488826B2.

- TARGET OR SYSTEM: PKC-α (Homo sapiens, UniProt P17252)
pIC50: −log10 of the molar value.
PROPERTY: pIC50

{"STRUCTURE NOTATION": "COCCCn1cc(C2=C(c3ccccc3Cl)C(=O)NC2=O)c2cnccc21", "TARGET OR SYSTEM": "PKC-α (Homo sapiens, UniProt P17252)", "MEASURED": 5.60}
